FYI, the data here is from ChEMBL document CHEMBL5244257.

Test system: Trypanosoma cruzi
Assay: Antiparasitic activity against Trypanosoma cruzi Tulahuen strain amastigotes
Type: functional, organism-based
pIC50: −log10 of the molar value.

# substance_smiles, pIC50
data = [
    ("O=C(N[C@@H](Cn1ccnc1)c1ccc(-c2ccc(F)cc2)cc1F)c1ccc(-c2nnc(-c3ccccc3)o2)cc1", 9.10),
]

---

Target: Cruzipain (Trypanosoma cruzi, UniProt P25779)
Sequence (P25779 whole entry): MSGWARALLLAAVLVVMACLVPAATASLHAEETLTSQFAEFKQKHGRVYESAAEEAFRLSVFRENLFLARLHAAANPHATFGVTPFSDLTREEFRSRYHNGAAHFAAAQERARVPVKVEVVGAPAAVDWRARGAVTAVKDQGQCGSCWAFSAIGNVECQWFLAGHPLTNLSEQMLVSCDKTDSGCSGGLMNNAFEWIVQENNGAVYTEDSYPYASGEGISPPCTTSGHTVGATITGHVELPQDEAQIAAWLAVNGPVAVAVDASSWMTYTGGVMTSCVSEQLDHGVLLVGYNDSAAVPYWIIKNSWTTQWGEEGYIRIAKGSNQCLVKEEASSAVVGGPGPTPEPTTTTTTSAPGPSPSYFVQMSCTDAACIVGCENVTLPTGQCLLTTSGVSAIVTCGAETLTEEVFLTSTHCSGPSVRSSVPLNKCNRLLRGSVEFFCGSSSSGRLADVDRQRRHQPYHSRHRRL
Assay: Inhibition of Trypanosoma cruzi Cruzain using Z-Phe-Arg-AMC as flurogenic substrate
pIC50: −log10 of the molar value.

# substance_smiles, pIC50
data = [
    ("Cc1cccc(OCCNC(=O)n2ccnc2)c1", 6.00),
]

---

Tested on: Trypanosoma cruzi
Assay: Antitrypanosomal activity against Trypanosoma cruzi Tulahuen strain trypomastigotes infected in human MRC5 cells measured after 7 days
Type: functional, organism-based
Conditions: MRC5, 168 h

# substance_smiles, IC50
rows = [
    ("Cc1ccc(-c2c[nH]c(NC(=O)N3CCN(c4ccc(C(F)(F)F)cc4[N+](=O)[O-])CC3)n2)cc1", "2.2 µM"),
    ("Brc1ccc(-c2c[nH]c(-c3ccccn3)n2)cc1", "1.2 µM"),
]

---

System: Trypanosoma cruzi
Assay: Antitrypanosomal activity against Trypanosoma cruzi IRHOD/CO/2008/SN3 epimastigotes
Type: functional, organism-based
pIC50: −log10 of the molar value.

# substance_smiles, pIC50
measured = [
    ("Oc1cccc2c(NCCc3c[nH]cn3)nnc(Cl)c12", 5.07),
]
